Molecular target: human thyroid receptor beta ligand-binding domain (LBD) (Homo sapiens, UniProt P10828)
Construct: purchased Invitrogen
Sequence (P10828 217-461 limits assumed): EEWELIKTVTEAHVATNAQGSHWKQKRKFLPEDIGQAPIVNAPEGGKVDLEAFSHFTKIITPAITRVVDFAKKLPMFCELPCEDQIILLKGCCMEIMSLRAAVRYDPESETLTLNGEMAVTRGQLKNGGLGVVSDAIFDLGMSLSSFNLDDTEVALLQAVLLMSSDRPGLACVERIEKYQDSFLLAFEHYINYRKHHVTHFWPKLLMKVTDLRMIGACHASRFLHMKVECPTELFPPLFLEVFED
Assay: TR-FRET thyroid receptor beta coactivator assay (THR biochemical assay, Assay 1)
Settings: Table 5; Assay 1; THRβ; read-out: Activity category Assay 1 THRβ (Emax)
Please provide measured Emax for the entries that follow.

Q) Entry CSCc1nn(-c2cc(Cl)c(Oc3cc(C(C)C)c(=O)[nH]n3)c(Cl)c2)c(=O)[nH]c1=O [Compound 33] has what Emax?
A) > 75%

Q) And for N#Cc1nn(-c2cc(Cl)c(Oc3ccc4[nH]cc(CC5CC5)c4c3)c(Cl)c2)c(=O)[nH]c1=O [Compound 50] ?
A) 50 to 75%

Q) And for Nc1nn(-c2cc(Cl)c(Oc3n[nH]c(=O)cc3-c3cnc4ccccc4c3)c(Cl)c2)c(=O)[nH]c1=O [Compound 133] ?
A) < 50%

Q) And for Nc1nn(-c2cc(Cl)c(Oc3cc(-c4cccc(F)c4)c(=O)[nH]n3)c(Cl)c2)c(=O)[nH]c1=O [Compound 69] ?
A) < 50%

Q) And for N#Cc1nn(-c2cc(Cl)c(Oc3ccc4[nH]cc(C#N)c4c3)c(Cl)c2)c(=O)[nH]c1=O [Compound 17] ?
A) < 50%

Q) And for Cc1cc(-n2ncc(=O)[nH]c2=O)cc(C)c1Cc1ccc2c(c1)C1(CC1)C(=O)N2 [Compound 152] ?
A) < 50%

Q) And for C[C@@H](c1cc(Oc2c(Cl)cc(-n3nc(N)c(=O)[nH]c3=O)cc2Cl)n[nH]c1=O)C1CCC1 [Compound 167] ?
A) < 50%

* * *

Please provide measured Emax for the entries that follow.
target: THR beta (Homo sapiens); construct: expressed in transfected cells; host or cells: HEK293T (ATCC CRL-3216); assay: HEK293T THR beta/RXR luciferase reporter assay (Assay 2); type: cell-based; conditions: HEK-293T; Table 5; Assay 2; THRβ; read-out: Activity category Assay 2 THRβ (Emax)

Q) Entry CC(C)Cc1c[nH]c2ccc(Oc3c(Cl)cc(-n4nc(C#N)c(=O)[nH]c4=O)cc3Cl)cc12 has what Emax?
A) > 75%

Q) And for Cc1cc(-n2nc(N)c(=O)[nH]c2=O)cc(C)c1Cc1ccc2c(c1)C1(CC1)C(=O)N2 ?
A) 50 to 75%

Q) And for Cc1cc(-n2nc(C#N)c(=O)[nH]c2=O)cc(C)c1Cc1ccc2[nH]c(=O)cc(C(C)C)c2c1 ?
A) 50 to 75%

Q) And for Cc1cc(-n2nc(C#N)c(=O)[nH]c2=O)cc(C)c1Cc1ccc2[nH]nc(C(C)C)c2c1 ?
A) > 75%

Q) And for Nc1nn(-c2cc(Cl)c(Oc3cc(C4Cc5ccccc5C4)c(=O)[nH]n3)c(Cl)c2)c(=O)[nH]c1=O ?
A) < 50%

Q) And for CC(C)c1c[nH]c2nnc(Oc3c(Cl)cc(-n4nc(C#N)c(=O)[nH]c4=O)cc3Cl)cc12 ?
A) > 75%

Q) And for CC(C)C1(C)C(=O)Nc2ccc(Oc3c(Cl)cc(-n4nc(N)c(=O)[nH]c4=O)cc3Cl)cc21 (centres unmarked) ?
A) > 75%

Q) And for CCCCCc1n[nH]c2ccc(Cc3c(C)cc(-n4nc(C#N)c(=O)[nH]c4=O)cc3C)cc12 ?
A) > 75%

Q) And for Nc1nn(-c2cc(Cl)c(Oc3cc(C4CC5(CC5)C4)c(=O)[nH]n3)c(Cl)c2)c(=O)[nH]c1=O ?
A) 50 to 75%

Q) And for Nc1nn(-c2cc(Cl)c(Oc3cc(C4(c5ccccc5)CC4)c(=O)[nH]n3)c(Cl)c2)c(=O)[nH]c1=O ?
A) 50 to 75%

Q) And for CC(C)NC(=O)c1c[nH]c2ccc(Oc3c(Cl)cc(-n4nc(C#N)c(=O)[nH]c4=O)cc3Cl)cc12 ?
A) < 50%

Q) And for Nc1nn(-c2cc(Cl)c(Oc3cc(C4CCc5ccccc5C4)c(=O)[nH]n3)c(Cl)c2)c(=O)[nH]c1=O (centres unmarked) ?
A) < 50%

Q) And for Nc1nn(-c2cc(Cl)c(Oc3n[nH]c(=O)cc3-c3ccccc3)c(Cl)c2)c(=O)[nH]c1=O ?
A) < 50%

Q) And for CC(C)c1cc(Oc2c(Cl)cc(-c3nn(C(F)F)c(=O)[nH]c3=O)cc2Cl)n[nH]c1=O ?
A) > 75%

Q) And for Nc1nn(-c2cc(Cl)c(Oc3cc(C4CCC(F)(F)CC4)c(=O)[nH]n3)c(Cl)c2)c(=O)[nH]c1=O ?
A) < 50%

Q) And for Cc1cccc(-c2cc(Oc3c(Cl)cc(-n4ncc(=O)[nH]c4=O)cc3Cl)n[nH]c2=O)c1 ?
A) 50 to 75%

Q) And for Cc1cc(-n2nc(N)c(=O)[nH]c2=O)cc(C)c1Cc1ccc2[nH]cc(C(C)C)c2n1 ?
A) > 75%

Q) And for CC(C)c1n[nH]c2nnc(Oc3c(Cl)cc(-n4nc(C#N)c(=O)[nH]c4=O)cc3Cl)cc12 [Compound 75A] ?
A) 50 to 75%

Q) And for Nc1nn(-c2cc(Cl)c(Oc3n[nH]c(=O)cc3-c3ccc4c(c3)CCCO4)c(Cl)c2)c(=O)[nH]c1=O ?
A) < 50%

Q) And for CC(C)c1c[nH]c2ccc(Oc3c(Cl)cc(-n4nc(C#N)c(=O)[nH]c4=O)cc3Cl)nc12 ?
A) > 75%

Q) And for O=c1cc(-c2ccc3c(c2)CCCC3)c(Oc2c(Cl)cc(-n3ncc(=O)[nH]c3=O)cc2Cl)n[nH]1 ?
A) 50 to 75%

Q) And for Cc1cc(-n2nc(C#N)c(=O)[nH]c2=O)cc(C)c1Cc1ccc2[nH]cc(C(C)C)c2c1 ?
A) > 75%

Q) And for CC(C)c1c[nH]c2nnc(Oc3c(Cl)cc(-n4nc(N)c(=O)[nH]c4=O)cc3Cl)cc12 ?
A) > 75%

Q) And for O=c1cc(-c2ccc3ccccc3c2)c(Oc2c(Cl)cc(-n3ncc(=O)[nH]c3=O)cc2Cl)n[nH]1 ?
A) < 50%

Q) And for Nc1nn(-c2cc(Cl)c(Oc3cc(C(O)C4CCCC4)c(=O)[nH]n3)c(Cl)c2)c(=O)[nH]c1=O (centres unmarked) ?
A) > 75%

Q) And for CC(c1cc(Oc2c(Cl)cc(-n3nc(N)c(=O)[nH]c3=O)cc2Cl)n[nH]c1=O)C1CC(F)(F)C1 (centres unmarked) [Compound 61] ?
A) > 75%

Q) And for Nc1nn(-c2cc(Cl)c(Oc3cc(-c4ccc5c(c4)CCCO5)c(=O)[nH]n3)c(Cl)c2)c(=O)[nH]c1=O ?
A) < 50%

Q) And for Cc1cc(-c2cc(Oc3c(Cl)cc(-n4nc(N)c(=O)[nH]c4=O)cc3Cl)n[nH]c2=O)ccc1Cl ?
A) < 50%

Q) And for Nc1nn(-c2cc(Cl)c(Oc3cc(-c4ccc5ccccc5c4)c(=O)[nH]n3)c(Cl)c2)c(=O)[nH]c1=O ?
A) 50 to 75%

* * *

Please provide measured EC50 for the entries that follow.
molecular target: THR beta (Homo sapiens); construct: expressed in transfected cells; host or cells: HEK293T (ATCC CRL-3216); experiment: HEK293T THR beta/RXR luciferase reporter assay (Assay 2); assay type: cell-based; conditions: THR-beta, HEK293T reporter assay; read-out: Activity category Assay 2 (EC50, THR-beta agonist)

Q) Entry CC1(C)C(=O)Nc2nnc(Oc3c(Cl)cc(-n4nc(C#N)c(=O)[nH]c4=O)cc3Cl)cc21 has what EC50?
A) > 10 µM

Q) And for CC(C)NC(=O)c1c[nH]c2ccc(Oc3c(Cl)cc(-n4nc(C#N)c(=O)[nH]c4=O)cc3Cl)cc12 ?
A) > 10 µM

Q) And for N#Cc1nn(-c2cc(Cl)c(Oc3ccc4[nH]cc(Cc5ccccc5)c4c3)c(Cl)c2)c(=O)[nH]c1=O ?
A) 1 to 10 µM

Q) And for Nc1nn(-c2cc(Cl)c(Oc3cc(C4CC5(CC5)C4)c(=O)[nH]n3)c(Cl)c2)c(=O)[nH]c1=O ?
A) 0.25 to 1 µM

Q) And for Cc1cccc(-c2cc(Oc3c(Cl)cc(-n4nc(N)c(=O)[nH]c4=O)cc3Cl)n[nH]c2=O)c1F ?
A) 0.05 to 0.25 µM

Q) And for Cc1cc(-n2nc(C#N)c(=O)[nH]c2=O)cc(C)c1Cc1ccc2[nH]nc(C(C)C)c2c1 ?
A) 0.05 to 0.25 µM

Q) And for Nc1nn(-c2cc(Cl)c(Oc3cc(-c4ccccc4)c(=O)[nH]n3)c(Cl)c2)c(=O)[nH]c1=O ?
A) 0.05 to 0.25 µM

Q) And for N#Cc1nn(-c2cc(Cl)c(Oc3ccc4[nH]cc(C#N)c4c3)c(Cl)c2)c(=O)[nH]c1=O ?
A) 1 to 10 µM

Q) And for Nc1nn(-c2cc(Cl)c(Oc3cc(C4CCOCC4)c(=O)[nH]n3)c(Cl)c2)c(=O)[nH]c1=O ?
A) 1 to 10 µM

Q) And for Cc1ccc(-c2cc(Oc3c(Cl)cc(-n4nc(N)c(=O)[nH]c4=O)cc3Cl)n[nH]c2=O)cc1C ?
A) 0.05 to 0.25 µM

Q) And for COC(=O)c1c[nH]c2ccc(Oc3c(Cl)cc(-n4nc(C#N)c(=O)[nH]c4=O)cc3Cl)cc12 ?
A) 1 to 10 µM

Q) And for O=c1cnn(-c2cc(Cl)c(Oc3cc(-c4ccc5ccccc5c4)c(=O)[nH]n3)c(Cl)c2)c(=O)[nH]1 ?
A) 0.05 to 0.25 µM

Q) And for Nc1nn(-c2cc(Cl)c(Oc3ccc4c(c3)C3(CC3)C(=O)N4)c(Cl)c2)c(=O)[nH]c1=O ?
A) < 0.05 µM

Q) And for CC(C)c1cc(Cc2c(Cl)cc(-n3nc(N)c(=O)[nH]c3=O)cc2Cl)n[nH]c1=O ?
A) < 0.05 µM

Q) And for O=c1cnn(-c2cc(Cl)c(Oc3cc(-c4ccc5c(c4)CCCC5)c(=O)[nH]n3)c(Cl)c2)c(=O)[nH]1 ?
A) 0.05 to 0.25 µM

Values compiled from patent US12180192B2.
